# Subject Of Test: T1, recombinant human glycophorin A ectodomain protein (human, UniProt P02724 20-91)
# T1 construct: 72 amino acids of the extracellular region; also called Hu-rec GPA
# T1 sequence: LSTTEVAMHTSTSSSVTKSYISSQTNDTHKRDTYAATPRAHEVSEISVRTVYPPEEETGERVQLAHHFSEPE
# Protocol Summary: ELISA, Fab on coated recombinant human GPA ectodomain
Assign binding in ELISA relative to parental Fab to each entry below.

Reported binding in ELISA relative to parental Fab ( TPP-5838, Hu6C12-24 Fab variant VL: (S24R, A26S, S49A, P54Q, F95Y); VH: (I48M, D66G, L70M) (Fab, V domains shown, Built on the parental Fab TPP-4935) VH: EVQLVQSGAEVKKPGASVKVSCKASGYTFTTYTIHWVRQAPGQGLEWMGYINPSSDYTRYNPKFKGRVTMTTDKSTSTAYMELRSLRSDDTAVYYCQTGTRDYWGQGTTVTVSS VL: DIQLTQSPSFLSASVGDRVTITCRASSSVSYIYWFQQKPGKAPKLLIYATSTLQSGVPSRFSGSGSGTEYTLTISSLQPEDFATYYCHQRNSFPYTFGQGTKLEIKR ) = 4.7 relative to parental Fab

Reported binding in ELISA relative to parental Fab ( TPP-5338, Hu6C12-24 Fab variant VH: (E1Q, I48M, L70M, T72R, K74T, R84S, D89E) (Fab, V domains shown, Built on the parental Fab TPP-4935) VH: QVQLVQSGAEVKKPGASVKVSCKASGYTFTTYTIHWVRQAPGQGLEWMGYINPSSDYTRYNPKFKDRVTMTRDTSTSTAYMELSSLRSEDTAVYYCQTGTRDYWGQGTTVTVSS VL: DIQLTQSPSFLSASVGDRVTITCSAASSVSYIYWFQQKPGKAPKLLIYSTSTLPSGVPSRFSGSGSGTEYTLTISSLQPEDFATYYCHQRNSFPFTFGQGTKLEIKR ) = 0.4 relative to parental Fab

Reported binding in ELISA relative to parental Fab ( TPP-5700, Hu6C12-24 Fab variant VL: (S24R, A26S, F95Y) (Fab, V domains shown, Built on the parental Fab TPP-4935) VH: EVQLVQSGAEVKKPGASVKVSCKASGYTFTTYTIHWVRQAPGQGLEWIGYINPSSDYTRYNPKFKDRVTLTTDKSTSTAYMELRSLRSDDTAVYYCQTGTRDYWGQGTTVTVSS VL: DIQLTQSPSFLSASVGDRVTITCRASSSVSYIYWFQQKPGKAPKLLIYSTSTLPSGVPSRFSGSGSGTEYTLTISSLQPEDFATYYCHQRNSFPYTFGQGTKLEIKR ) = 2.4 relative to parental Fab

Data credit: patent US20190359687A1
